system: 435261-313-R-J1-PDC complex spheroid viability; assay: Anticancer human tumor 435261-313-R-J1-PDC patient-derived colon adenocarcinoma cell line growth inhibition [GQUAD]; settings: second compound 1 µM; first compound 0.1 µM; active compounds read low
Reported values of viability, T/C for individual entries
Please respond with the number in % and leave the unit unwritten.

Nc1ccn(C2OC(CO)C(O)C2(F)F)c(=O)n1 (stereo not given) + Cc1cnc(CNC(=O)c2c(=O)c3ccc(N4CCCN(C)CC4)nc3n3c2sc2ccccc23)cn1; 46.9

Would you kindly look at the next entry?
Request: Provide one value: measured viability, T/C of COc1cc(C2c3cc4c(cc3C(OC3OC5COC(C)OC5C(O)C3O)C3COC(=O)C23)OCO4)cc(OC)c1O (stereo not given) + CN(C)c1ccc(Nc2c3ccc(NC(=O)CCN4CCCC4)cc3nc3cc(NC(=O)CCN4CCCC4)ccc23)cc1
Response: 91.4

###

tested on: 435261-313-R-J1-PDC complex spheroid viability; experiment: Anticancer human tumor 435261-313-R-J1-PDC cell line growth inhibition [GQUAD]; details: second compound 3.16 µM; first compound 1 µM; active = viability on the fitted dose curve at most 10% of control; inactive = the rest;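 further: spheroids exposed to the agents for seven days before readout; percent of vehicle control viability with DMSO wells as 100%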
Entry note: the call must match one of yes (1) for active, no (0) for inactive

COc1cc(C2c3cc4c(cc3C(OC3OC5COC(C)OC5C(O)C3O)C3COC(=O)C23)OCO4)cc(OC)c1O (stereo not given) + Cc1cnc(CNC(=O)c2c(=O)c3ccc(N4CCCN(C)CC4)nc3n3c2sc2ccccc23)cn1; no (0)
COc1ncnc(C2CC2)c1-c1ncc2cnn(Cc3ccc(-c4nc(C(F)(F)F)cn4C(C)C)cc3)c2n1 + CN(C)c1ccc(Nc2c3ccc(NC(=O)CCN4CCCC4)cc3nc3cc(NC(=O)CCN4CCCC4)ccc23)cc1; no (0)
COc1cccc2c1C(=O)c1c(O)c3c(c(O)c1C2=O)CC(O)(C(=O)CO)CC3OC1CC(N)C(O)C(C)O1 (stereo not given) + CN(C)c1ccc(Nc2c3ccc(NC(=O)CCN4CCCC4)cc3nc3cc(NC(=O)CCN4CCCC4)ccc23)cc1; no (0)
COc1ccc([C@@H](O)c2cc(-c3ncnc4cc(N5CCOCC5)ccc34)c(F)cc2Cl)nn1 + Cc1[nH]c2ccc(F)cc2c1-c1nc2c3cccnc3c3ncccc3c2[nH]1; no (0)
CC1COCCN1c1cc(-c2ccnn2C)c2ccnc(-c3ccn[nH]3)c2n1 (stereo not given) + Cc1cnc(CNC(=O)c2c(=O)c3ccc(N4CCCN(C)CC4)nc3n3c2sc2ccccc23)cn1; yes (1)

Request: What is the recorded call for this molecule in the test? Nc1ccn(C2OC(CO)C(O)C2(F)F)c(=O)n1 (stereo not given) + CN(C)c1ccc(Nc2c3ccc(NC(=O)CCN4CCCC4)cc3nc3cc(NC(=O)CCN4CCCC4)ccc23)cc1
Response: no (0)

Request: What is the recorded call for this molecule in the test? O=C(c1cc(Cc2n[nH]c(=O)c3ccccc23)ccc1F)N1CCN(C(=O)C2CC2)CC1 + Cc1cnc(CNC(=O)c2c(=O)c3ccc(N4CCCN(C)CC4)nc3n3c2sc2ccccc23)cn1
Response: no (0)

Request: What is the recorded call for this molecule in the test? CC(C)n1c(=O)n(C)c2cnc3cc(F)c(-c4ccc(OCCCN5CCCCC5)nc4)cc3c21 + Cc1cnc(CNC(=O)c2c(=O)c3ccc(N4CCCN(C)CC4)nc3n3c2sc2ccccc23)cn1
Response: yes (1)

Request: What is the recorded call for this molecule in the test? C#Cc1c(F)ccc2cc(O)cc(-c3ncc4c(N5CC6CCC(C5)N6)nc(OCC56CCCN5CC(F)C6)nc4c3F)c12 (stereo not given) + CN(C)c1ccc(Nc2c3ccc(NC(=O)CCN4CCCC4)cc3nc3cc(NC(=O)CCN4CCCC4)ccc23)cc1
Response: no (0)

Request: What is the recorded call for this molecule in the test? C#Cc1c(F)ccc2cc(O)cc(-c3ncc4c(N5CC6CCC(C5)N6)nc(OCC56CCCN5CC(F)C6)nc4c3F)c12 (stereo not given) + Cc1cnc(CNC(=O)c2c(=O)c3ccc(N4CCCN(C)CC4)nc3n3c2sc2ccccc23)cn1
Response: yes (1)

###

Reported values of viability, T/C for individual entries
tested on: 435261-313-R-J1-PDC complex spheroid viability; test: Anticancer human tumor 435261-313-R-J1-PDC cell line growth inhibition [GQUAD]; conditions: second compound 0.316 µM; first compound 0.000999 µM; active compounds read low;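 further: spheroids exposed to the agents for seven days before readout; percent of vehicle control viability with DMSO wells as 100%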
Please respond with the number in % and leave the unit unwritten.

Example molecules with recorded viability, T/C:
CCc1c2c(nc3ccc(O)cc13)-c1cc3c(c(=O)n1C2)COC(=O)[C@]3(O)CC + Cc1[nH]c2ccc(F)cc2c1-c1nc2c3cccnc3c3ncccc3c2[nH]1; 53.6
CCc1c2c(nc3ccc(O)cc13)-c1cc3c(c(=O)n1C2)COC(=O)[C@]3(O)CC + CN(C)c1ccc(Nc2c3ccc(NC(=O)CCN4CCCC4)cc3nc3cc(NC(=O)CCN4CCCC4)ccc23)cc1; 76.4
CC[C@@]1(O)C(=O)OCc2c1cc1n(c2=O)Cc2cc3c(CN(C)C)c(O)ccc3nc2-1 + CN(C)c1ccc(Nc2c3ccc(NC(=O)CCN4CCCC4)cc3nc3cc(NC(=O)CCN4CCCC4)ccc23)cc1; 108

Request: Provide one value: measured viability, T/C of Cn1ncnc1[C@H]1c2n[nH]c(=O)c3cc(F)cc(c23)N[C@@H]1c1ccc(F)cc1 + Cc1[nH]c2ccc(F)cc2c1-c1nc2c3cccnc3c3ncccc3c2[nH]1
Response: 86.9

Request: Provide one value: measured viability, T/C of Cn1ncnc1[C@H]1c2n[nH]c(=O)c3cc(F)cc(c23)N[C@@H]1c1ccc(F)cc1 + CN(C)c1ccc(Nc2c3ccc(NC(=O)CCN4CCCC4)cc3nc3cc(NC(=O)CCN4CCCC4)ccc23)cc1
Response: 97.5

###

System: 435261-313-R-J1-PDC complex spheroid viability
Assay: Anticancer human tumor 435261-313-R-J1-PDC cell line growth inhibition [GQUAD];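 further: spheroids exposed to the agents for seven days before readout; percent of vehicle control viability with DMSO wells as 100%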
Details: second compound 10 µM; first compound 0.316 µM; active compounds read low
Text: DNA G-quadruplex Stabilizer Agents in Combinations in Complex Spheroids A high-throughput screen of multi-cell type tumor spheroids was designed to identify active combinations of DNA G-quadruplex stabilizer agents and targeted small molecules. […] Compounds. […] If the clinical Cmax for an agent had not been determined, the highest concentration tested was 10 microM. […]
OBSERVATION TYPE: viability, T/C (%)
Please respond with the number in % and leave the unit unwritten.

COc1ccc([C@@H](O)c2cc(-c3ncnc4cc(N5CCOCC5)ccc34)c(F)cc2Cl)nn1 + Cc1cnc(CNC(=O)c2c(=O)c3ccc(N4CCCN(C)CC4)nc3n3c2sc2ccccc23)cn1; 0.16

Would you kindly look at the next entry?
Request: Tell me its viability, T/C on 435261-313-R-J1-PDC complex spheroid viability: COc1ccc([C@@H](O)c2cc(-c3ncnc4cc(N5CCOCC5)ccc34)c(F)cc2Cl)nn1 + CN(C)c1ccc(Nc2c3ccc(NC(=O)CCN4CCCC4)cc3nc3cc(NC(=O)CCN4CCCC4)ccc23)cc1
Response: 26.9

###

Reported values of viability, T/C for individual entries
System: 435261-313-R-J1-PDC complex spheroid viability
Experiment: Anticancer human tumor 435261-313-R-J1-PDC cell line growth inhibition [GQUAD];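 further: spheroids exposed to the agents for seven days before readout; percent of vehicle control viability with DMSO wells as 100%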
Conditions: second compound 0.0316 µM; first compound 0.1 µM; active compounds read low
Source text: DNA G-quadruplex Stabilizer Agents in Combinations in Complex Spheroids A high-throughput screen of multi-cell type tumor spheroids was designed to identify active combinations of DNA G-quadruplex stabilizer agents and targeted small molecules. […] Compounds. […] If the clinical Cmax for an agent had not been determined, the highest concentration tested was 10 microM. […]
Please respond with the number in % and leave the unit unwritten.

Example molecules with recorded viability, T/C:
CC(C)n1c(=O)n(C)c2cnc3cc(F)c(-c4ccc(OCCCN5CCCCC5)nc4)cc3c21 + CN(C)c1ccc(Nc2c3ccc(NC(=O)CCN4CCCC4)cc3nc3cc(NC(=O)CCN4CCCC4)ccc23)cc1; 103
Nc1ccn(C2OC(CO)C(O)C2(F)F)c(=O)n1 (stereo not given) + Cc1[nH]c2ccc(F)cc2c1-c1nc2c3cccnc3c3ncccc3c2[nH]1; 50.2

Request: Provide one value: measured viability, T/C of COc1cc(C2c3cc4c(cc3C(OC3OC5COC(C)OC5C(O)C3O)C3COC(=O)C23)OCO4)cc(OC)c1O (stereo not given) + CN(C)c1ccc(Nc2c3ccc(NC(=O)CCN4CCCC4)cc3nc3cc(NC(=O)CCN4CCCC4)ccc23)cc1
Response: 117

Request: Provide one value: measured viability, T/C of C=CC(=O)N1CCN(c2nc(=O)n(-c3c(C)ccnc3C(C)C)c3nc(-c4c(O)cccc4F)c(F)cc23)C(C)C1 (stereo not given) + CN(C)c1ccc(Nc2c3ccc(NC(=O)CCN4CCCC4)cc3nc3cc(NC(=O)CCN4CCCC4)ccc23)cc1
Response: 146

Request: Provide one value: measured viability, T/C of CC(C)(O)C1CCC(Nc2ccc3ncc(-c4cccc(C(F)(F)F)c4)n3n2)CC1 (stereo not given) + Cc1[nH]c2ccc(F)cc2c1-c1nc2c3cccnc3c3ncccc3c2[nH]1
Response: 93.4

Source of measurements: PubChem BioAssay AID2060494
